Exercise: for every item that follows, state its recorded IC50.
Tested on: U266
Assay: Cell growth inhibition, U266
Format: cell-based
Conditions: Homo sapiens, U-266; U266 cell line; 24 hours; viability by WST-1 or Alamar Blue
Experimental: The compounds of Examples 1 and 2 were also tested for cell growth inhibition activity a gains two cell lines, MCF-7 and U266. […] After the incubation period, cells were assessed for viability using either WST-1 (Biovision) or Alamar Blue (BioSourse). Values from treated cells were compared to values from control cells and values expressed as percent control.

Problem: Lab request: please report IC50 under test system U266 for CC(C)(C)c1cc(C(=O)N2CCNS(=O)(=O)CC2)c(NC(=O)Nc2ccc(Oc3ccncc3)cc2)s1
Solution: < 10 µM

Problem: Also check CC(C)(C)c1cc(C(=O)N2CCNC(=O)C2)c(NC(=O)Nc2ccc(Oc3ccncc3)cc2)s1
Solution: < 10 µM
